Here, each record is paired with measured inhibition of SARS-CoV-2 cytopathic effect data.
System: Vero E6 infected with SARS-CoV-2
Assay comment: inhibition of SARS-CoV-2 cytopathic effect; higher = more antiviral protection, active = above 15
Run parameters: 10000 nM; 48 h
Parameter: inhibition of SARS-CoV-2 cytopathic effect (%)

- Molecule: "O=C(NCCN1CCC2(CC1)C(=O)NCN2c1cccc(F)c1)c1ccc(F)c(F)c1"
  Numeric readout: 22
- Molecule: "COC(=O)C1=CCCN(C)C1 [arecoline]"
  Numeric readout: 1.15
- Molecule: "C[C@]12CC[C@H](O)C[C@H]1CC[C@@H]1[C@@H]2C[C@@H](O)[C@]2(C)[C@@H](C3=CC(=O)OC3)CC[C@]12O [digoxigenin]"
  Numeric readout: -14.1
- Molecule: "CCN(CC)CC1CCCCN1CC(=O)N1c2ccccc2C(=O)Nc2cccnc21 (stereo not drawn) [otenzepad]"
  Numeric readout: 0.04
- Molecule: "CCOC(=O)c1ccc(N2NC(=O)/C(=C/c3ccc([N+](=O)[O-])o3)C2=O)cc1"
  Numeric readout: -6.2
- Molecule: "CCCCN(CCCC)CCC(O)c1cc2c(Cl)cc(Cl)cc2c2cc(C(F)(F)F)ccc12 (stereo not drawn) [halofantrine]"
  Numeric readout: -1.68
- Molecule: "CC[C@H]1[C@@H](O)[C@@H]2[C@H](CC[C@]3(C)[C@@H]([C@H](C)CCC(=O)O)CC[C@@H]23)[C@@]2(C)CC[C@@H](O)C[C@@H]12 [obeticholic-acid]"
  Numeric readout: 1.65
- Molecule: "CC1(C)CC[C@]2(NC(=O)C(C)(F)F)CC[C@]3(C)[C@H](C(=O)C=C4[C@@]5(C)C=C(C#N)C(=O)C(C)(C)[C@@H]5CC[C@]43C)[C@@H]2C1 [Omaveloxolone (RTA-408)]"
  Numeric readout: -13.7
- Molecule: "CCOC(=O)[C@H](C)C[C@@H](Cc1ccc(-c2ccccc2)cc1)NC(=O)CCC(=O)O [sacubitril]"
  Numeric readout: 2.18
- Molecule: "c1ccc2sc(SN3CCOCC3)nc2c1 [N-oxydiethylenebenzothiazole-2-sulfenamide]"
  Numeric readout: -1.24
- Molecule: "COc1cc2ncnc(Nc3ccc(F)c(Cl)c3)c2cc1OCCCN1CCOCC1 [gefitinib]"
  Numeric readout: -22.2
- Molecule: "COC(=O)CCC(=O)CN [methyl-aminolevulinate]"
  Numeric readout: 5.12
- Molecule: "NS(=O)(=O)c1cc2c(cc1Cl)NC(CC1CCCC1)NS2(=O)=O (stereo not drawn) [cyclopenthiazide]"
  Numeric readout: -0.14
- Molecule: "Nc1ccncc1N [amifampridine]"
  Numeric readout: -5.61
- Molecule: "COc1cc2c(NC3CCN(C(C)C)CC3)nc(C3CCCCC3)nc2cc1OCCCN1CCCC1"
  Numeric readout: 59.6
- Molecule: "O=C1c2cccc3c2[C@H](CCC3)CN1[C@@H]1CN2CCC1CC2 [palonosetron]"
  Numeric readout: -0.75
- Molecule: "CN(CCOc1ccc(NS(C)(=O)=O)cc1)CCc1ccc(NS(C)(=O)=O)cc1 [dofetilide]"
  Numeric readout: -0.36
- Molecule: "Cc1ccc(-c2ncc[nH]2)cc1NC(=O)c1ccc(OCc2ccccn2)cc1"
  Numeric readout: -4.54
